# credit: patent US12624044B2

target.or.test.system: SMARCA2 (Homo sapiens, UniProt P51531)
Sequence (P51531 whole entry): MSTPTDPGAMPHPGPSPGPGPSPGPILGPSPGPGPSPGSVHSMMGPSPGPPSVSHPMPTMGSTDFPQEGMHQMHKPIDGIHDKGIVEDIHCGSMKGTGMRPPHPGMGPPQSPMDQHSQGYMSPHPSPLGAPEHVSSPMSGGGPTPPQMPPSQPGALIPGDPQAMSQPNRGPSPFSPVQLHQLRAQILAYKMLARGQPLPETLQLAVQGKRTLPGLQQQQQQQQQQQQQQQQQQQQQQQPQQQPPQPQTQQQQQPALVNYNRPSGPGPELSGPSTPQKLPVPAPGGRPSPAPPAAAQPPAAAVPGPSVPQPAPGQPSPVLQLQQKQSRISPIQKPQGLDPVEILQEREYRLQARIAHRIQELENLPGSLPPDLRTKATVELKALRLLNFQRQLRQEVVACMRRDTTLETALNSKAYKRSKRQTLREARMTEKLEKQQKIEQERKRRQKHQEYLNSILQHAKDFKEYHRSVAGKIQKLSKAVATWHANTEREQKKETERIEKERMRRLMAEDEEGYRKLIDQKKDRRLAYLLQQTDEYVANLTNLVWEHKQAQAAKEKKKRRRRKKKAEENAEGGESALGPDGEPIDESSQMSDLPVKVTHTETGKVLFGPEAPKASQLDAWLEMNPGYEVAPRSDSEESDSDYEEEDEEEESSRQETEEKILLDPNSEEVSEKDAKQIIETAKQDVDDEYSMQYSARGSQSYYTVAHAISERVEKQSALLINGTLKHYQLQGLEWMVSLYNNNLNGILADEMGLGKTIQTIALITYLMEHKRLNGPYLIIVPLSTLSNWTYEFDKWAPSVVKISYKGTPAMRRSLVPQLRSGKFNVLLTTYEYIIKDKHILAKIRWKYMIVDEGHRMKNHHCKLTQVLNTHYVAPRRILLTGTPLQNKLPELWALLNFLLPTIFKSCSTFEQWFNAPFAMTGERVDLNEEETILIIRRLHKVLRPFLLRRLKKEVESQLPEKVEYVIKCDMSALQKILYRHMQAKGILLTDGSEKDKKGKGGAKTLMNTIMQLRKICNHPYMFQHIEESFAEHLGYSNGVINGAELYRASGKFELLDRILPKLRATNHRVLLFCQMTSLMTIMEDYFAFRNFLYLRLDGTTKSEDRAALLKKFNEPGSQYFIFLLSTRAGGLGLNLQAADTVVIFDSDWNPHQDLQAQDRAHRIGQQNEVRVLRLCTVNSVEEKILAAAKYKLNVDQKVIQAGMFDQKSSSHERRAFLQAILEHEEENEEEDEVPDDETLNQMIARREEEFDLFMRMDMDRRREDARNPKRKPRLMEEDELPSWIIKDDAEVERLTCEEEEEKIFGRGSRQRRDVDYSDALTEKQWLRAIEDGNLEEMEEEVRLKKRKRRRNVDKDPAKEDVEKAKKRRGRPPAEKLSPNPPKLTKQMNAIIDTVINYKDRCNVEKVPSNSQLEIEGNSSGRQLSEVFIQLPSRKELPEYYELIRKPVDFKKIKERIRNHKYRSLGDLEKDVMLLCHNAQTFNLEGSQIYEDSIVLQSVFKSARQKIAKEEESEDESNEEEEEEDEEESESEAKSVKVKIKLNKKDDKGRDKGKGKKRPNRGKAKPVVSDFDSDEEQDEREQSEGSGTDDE
test.details: MSD SMARCA2 degradation in A549 cell line
Format: cell-based
measurement.setup: A549 cells, 24 h, read-out: SMARCA2 MSD A549 degradation 24 h: Average external-Abs DC50
Experimental: Cells were seeded into 96-well plates (A549 cells: 2×10^4 cells/well/100 ul media) abd incubated overnight. The next day, 200 nl compound were added into the intermediate plate with Echo (Labcyte 550) from source plate containing a 3-fold serial dilution from top concentration of 1 mM. […] The MSD plate was washed three times with 150 ul/well of TBST and 150 ul/well of 2×MSD reading buffer diluted from 4× (MSD, R92TC-2) with water was added. Lastly, the MSD instrument was read. […]
We begin with a simple list: items and their reported DC50.

Sample answers from the record:
Cc1ncsc1-c1ccc(CNC(=O)[C@@H]2C[C@@H](O)CN2C(=O)[C@@H](NC(=O)CCCCN2CCC(CN3CCC(Cn4cc(-c5cc(-c6ccccc6O)nnc5N)cn4)CC3)CC2)C(C)(C)C)cc1 : > 1000 nM
Cc1ncsc1-c1ccc(CNC(=O)[C@@H]2C[C@@H](O)CN2C(=O)[C@@H](NC(=O)[C@H]2CC[C@H](c3cnc(N4C5CCC4CN(c4cc(-c6ccccc6O)nnc4N)C5)nc3)CC2)C(C)(C)C)c(C(F)(F)F)c1 : 100 to 500 nM
Cc1ncsc1-c1ccc(CNC(=O)[C@@H]2C[C@@H](O)CN2C(=O)[C@@H](NC(=O)C2CCC(CN3CCC(n4cc(-c5cc(-c6ccccc6O)nnc5N)cn4)CC3)CC2)C(C)(C)C)cc1 (stereo partly drawn) : 100 to 500 nM
Cc1ncsc1-c1ccc(CNC(=O)[C@@H]2C[C@@H](O)CN2C(=O)[C@@H](NC(=O)[C@H]2CC[C@@H](c3ccc(CN4CCC(Cn5cc(-c6cc(-c7ccccc7O)nnc6N)cn5)CC4)cc3)CC2)C(C)(C)C)cc1 : 100 to 500 nM
Cc1ncsc1-c1ccc(CNC(=O)[C@@H]2C[C@@H](O)CN2C(=O)[C@@H](NC(=O)Cc2ccc(N3CCC(c4cnc(N5C6CCC5CN(c5cc(-c7ccccc7O)nnc5N)C6)nc4)CC3)cc2)C(C)(C)C)cc1 : 501 to 1000 nM

Entry Cn1c(=O)n(C2CCC(=O)NC2=O)c2ccc(C3CC4(C3)CC(N3CCC(c5cnc(N6C7CCC6CN(c6cc(-c8ccccc8O)nnc6N)C7)nc5)CC3)C4)cc21 (single isomer, unassigned) [I-536 (P3)] — recorded DC50 = < 100 nM

Entry Cc1ncsc1-c1ccc(CNC(=O)[C@@H]2C[C@@H](O)CN2C(=O)[C@@H](NC(=O)[C@H]2C[C@]3(C[C@H](CN(C)Cc4cnc(N5C6CCC5CN(c5cc(-c7ccccc7O)nnc5N)C6)nc4)C3)C2)C(C)(C)C)cc1 (stereo partly drawn) — recorded DC50 = 100 to 500 nM

Entry Cc1ncsc1-c1ccc(CNC(=O)[C@@H]2C[C@@H](O)CN2C(=O)[C@@H](NC(=O)[C@H]2CC[C@H](CN3CCC(n4cc(-c5cc(-c6ccccc6O)nnc5N)cn4)CC3)CC2)C(C)(C)C)cc1 — recorded DC50 = 100 to 500 nM

Entry Cc1ncsc1-c1ccc(CNC(=O)[C@@H]2C[C@@H](O)CN2C(=O)[C@@H](NC(=O)CCCN(C)Cc2ccc(N3CCN(c4cc(-c5ccccc5O)nnc4N)CC3)cc2)C(C)(C)C)cc1 — recorded DC50 = > 1000 nM
